- Assay summary: Pharmacokinetic experiment in rats after intragastric administration
- Format: in vivo
- Experimental parameters: rat, po, female SD rats, 10 mg/kg, plasma
Measured parameter: Tmax (min)
Write the number in min without appending the unit.

Take a look at these entries with their results.
*Q* Item under review: COc1cc2c(Oc3ccc(NC(=O)C4(C(=O)Nc5ccc(F)cc5)CC4)cc3F)ccnc2cc1OCCCCNC(=O)CSC(C)=O . Reported Tmax?
*A* 30

*Q* Entry COc1cc2c(Oc3ccc(NC(=O)C4(C(=O)Nc5ccc(F)cc5)CC4)cc3F)ccnc2cc1OC/C=C/CCCCSC(C)=O please
*A* 79.8

*Q* Try COc1cc2c(Oc3ccc(NC(=O)C4(C(=O)Nc5ccc(F)cc5)CC4)cc3F)ccnc2cc1OCCCCCNC(=O)CSC(=O)[C@@H](Cc1cn(C)c2ccccc12)NC(C)=O next.
*A* 30

We next turn to a different compound, shown below.
*Q* I have this compound here, COc1cc2c(Oc3ccc(NC(=O)C4(C(=O)Nc5ccc(F)cc5)CC4)cc3F)ccnc2cc1OCCCCCNC(=O)CSC(=O)[C@H](N)Cc1cn(C)c2ccccc12 [Example 93, benzenesulfonate] , and I need its recorded Tmax.
*A* 40

====

- Assayed system: HDAC6 (Homo sapiens (Human))
- Sequence (Q9UBN7 whole entry): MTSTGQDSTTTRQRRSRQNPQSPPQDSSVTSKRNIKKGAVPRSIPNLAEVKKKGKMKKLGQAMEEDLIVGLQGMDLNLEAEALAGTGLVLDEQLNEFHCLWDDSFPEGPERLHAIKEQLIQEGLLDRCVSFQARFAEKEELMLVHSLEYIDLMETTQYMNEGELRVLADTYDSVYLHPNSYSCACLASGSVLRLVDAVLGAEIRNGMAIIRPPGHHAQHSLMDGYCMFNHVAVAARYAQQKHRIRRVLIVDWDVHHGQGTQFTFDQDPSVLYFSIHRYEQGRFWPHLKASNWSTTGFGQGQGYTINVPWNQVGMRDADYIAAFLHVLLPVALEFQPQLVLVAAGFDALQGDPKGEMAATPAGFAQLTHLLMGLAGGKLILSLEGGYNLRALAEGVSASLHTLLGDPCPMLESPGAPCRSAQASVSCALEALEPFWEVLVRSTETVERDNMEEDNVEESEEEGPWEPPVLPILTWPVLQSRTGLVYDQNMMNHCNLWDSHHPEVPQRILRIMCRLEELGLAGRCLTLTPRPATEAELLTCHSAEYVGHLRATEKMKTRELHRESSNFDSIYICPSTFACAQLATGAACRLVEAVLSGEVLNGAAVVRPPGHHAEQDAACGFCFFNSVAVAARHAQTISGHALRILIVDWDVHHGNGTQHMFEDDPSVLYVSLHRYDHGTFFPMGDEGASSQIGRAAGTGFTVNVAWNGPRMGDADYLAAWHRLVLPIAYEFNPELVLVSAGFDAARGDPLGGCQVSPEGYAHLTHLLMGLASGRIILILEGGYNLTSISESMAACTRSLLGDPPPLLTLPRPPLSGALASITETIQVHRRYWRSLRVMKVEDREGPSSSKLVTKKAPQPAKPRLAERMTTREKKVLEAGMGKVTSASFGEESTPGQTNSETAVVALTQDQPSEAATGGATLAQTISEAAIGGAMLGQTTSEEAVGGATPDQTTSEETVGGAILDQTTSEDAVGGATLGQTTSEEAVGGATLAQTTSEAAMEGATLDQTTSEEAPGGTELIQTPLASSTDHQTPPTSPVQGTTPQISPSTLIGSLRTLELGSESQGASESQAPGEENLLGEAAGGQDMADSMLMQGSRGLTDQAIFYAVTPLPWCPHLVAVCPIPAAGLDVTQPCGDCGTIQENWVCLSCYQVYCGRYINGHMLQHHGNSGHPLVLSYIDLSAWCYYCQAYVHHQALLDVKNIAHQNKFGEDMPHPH
Reported IC50 values for the following molecules.
All answers are understood in nM, so give the number only.

*Q* Which IC50 value belongs to COc1cc2c(Oc3ccc(NC(=O)C4(C(=O)Nc5ccc(F)cc5)CC4)cc3F)ccnc2cc1OCCCCNC(=O)CS [Example 62] ?
*A* 16.3

New cases:
*Q* Return reported IC50; argument: COc1cc2c(Oc3ccc(NC(=O)C4(C(=O)Nc5ccc(F)cc5)CC4)cc3F)ccnc2cc1OCCCCCCCS [Example 13]
*A* 18

*Q* CC(=O)SCC(=O)NCCCCCOc1cc2nccc(Oc3ccc(NC(=O)C4(C(=O)Nc5ccc(F)cc5)CC4)cc3F)c2cc1C(N)=O [Example 71] ?
*A* 27

====

- Assay summary: Pharmacokinetic experiment in rats after intragastric administration
- Format: in vivo
- Experimental parameters: rat, po, female SD rats, 10 mg/kg, plasma
- Experimental: The female SD rats were divided into groups, 3 rats in each group, and the example compounds 10, 12, 24, 57, 61, 89, 90, 93, 94, 96 (10 mg/kg) were administered by intragastric administration. Fasting overnight before administration, and the fasting time was from 10 hours before administration to 4 hours after administration. […] The plasma sample was extracted by protein precipitation method, and the extract was processed and analyzed by LC/MS/MS.
# half-life per entry
Hi! Could you send only the number? It should be in h, unit omitted.

Some solved cases for reference:
*Q* Suppose we examine the compound COc1cc2c(Oc3ccc(NC(=O)C4(C(=O)Nc5ccc(F)cc5)CC4)cc3F)ccnc2cc1OCCCCCNC(=O)CSC(C)=O [Example 57] ; what half-life value has been reported?
*A* 6.42

*Q* Param item: COc1cc2c(Oc3ccc(NC(=O)C4(C(=O)Nc5ccc(F)cc5)CC4)cc3F)ccnc2cc1OCCCCCCSC(C)=O [Example 10]
*A* 1.24

Next:
*Q* I'd like to know its half-life. The compound in question is COc1cc2c(Oc3ccc(NC(=O)C4(C(=O)Nc5ccc(F)cc5)CC4)cc3F)ccnc2cc1OCCCCCNC(=O)CSC(=O)[C@@H](Cc1cn(C)c2ccccc12)NC(C)=O [Example 94]
*A* 6.14

*Q* Try COc1cc2c(Oc3ccc(NC(=O)C4(C(=O)Nc5ccc(F)cc5)CC4)cc3F)ccnc2cc1OCCCCNC(=O)CSC(C)=O [Example 61] next.
*A* 1.84

*Q* COc1cc2c(Oc3ccc(NC(=O)C4(C(=O)Nc5ccc(F)cc5)CC4)cc3F)ccnc2cc1OCCCCCNC(=O)CSSC [Example 96] , same question.
*A* 6.92

*Q* Next up: CCCCCCCC(=O)SCC(=O)NCCCCCOc1cc2nccc(Oc3ccc(NC(=O)C4(C(=O)Nc5ccc(F)cc5)CC4)cc3F)c2cc1OC [Example 90]
*A* 4.25
